These entries and their values trace back to ChEMBL document CHEMBL1201862.

- measured_target: UniProt P10635
- Sequence (P10635 whole entry): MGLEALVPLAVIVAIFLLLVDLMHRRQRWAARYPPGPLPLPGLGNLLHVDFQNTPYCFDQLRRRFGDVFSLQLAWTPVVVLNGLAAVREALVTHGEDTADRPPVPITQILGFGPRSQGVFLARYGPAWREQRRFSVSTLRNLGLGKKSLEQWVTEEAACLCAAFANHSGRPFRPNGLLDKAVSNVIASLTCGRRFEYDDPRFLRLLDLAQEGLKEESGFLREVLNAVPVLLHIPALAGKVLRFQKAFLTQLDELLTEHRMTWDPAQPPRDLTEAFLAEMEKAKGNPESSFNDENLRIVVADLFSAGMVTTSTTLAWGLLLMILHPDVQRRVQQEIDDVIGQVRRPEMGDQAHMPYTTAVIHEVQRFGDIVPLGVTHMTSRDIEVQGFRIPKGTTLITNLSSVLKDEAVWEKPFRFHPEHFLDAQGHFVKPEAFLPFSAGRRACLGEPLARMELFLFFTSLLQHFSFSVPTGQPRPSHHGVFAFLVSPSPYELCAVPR
endpoint: AC50

Problem: Report AC50 for COc1cc2c(cc1OC)-c1c/c(=N/c3c(C)cc(C)cc3C)n(C)c(=O)n1CC2 tested on UniProt P10635.
Result: 31.6 µM (inconclusive)

Problem: Note, next up: CCC(=O)NCc1c(Cl)cccc1-n1cccc1
Result: 15.8 µM (inconclusive)

Problem: Follow-up entry: NCCSCCc1ccccc1
Result: 3.16 µM (inconclusive)

Problem: Same question, COc1cc2c(cc1OC)[C@H](c1ccccc1)CN(C)CC2 this time
Result: 31.6 µM (inconclusive)

Problem: Okay, and CS(=O)(=O)Nc1cccc(-c2cc(NCc3ccccc3)ncn2)c1 ?
Result: 31.6 µM (inconclusive)

Problem: Subsequent entry: Clc1ccc(-c2noc(CN3CCCCC3)n2)cc1
Result: 3.16 µM (inconclusive)

Problem: Can you check CC(=O)c1cccc(NC(=O)Cc2ccc3c(c2)CCCC3)c1 next?
Result: 4.47 µM (inconclusive)

Problem: Try the molecule COc1ccc(OC)c(C2C3=C(O)OCC3=Nc3cc4c(cc32)OCO4)c1 (centres undefined)
Result: 22.4 µM (inconclusive)

Problem: Item: c1ccc2c([C@@H]3CCN(CCN4CCOCC4)C3)c[nH]c2c1
Result: 3.98 µM (inconclusive)

Problem: Another molecule: CC(C(=O)Nc1ccccc1Sc1ccccc1)N(c1ccccc1)S(C)(=O)=O (centres undefined)
Result: 25.1 µM (inconclusive)

Problem: // next record CN(C)c1nc2c(c(=O)[nH]c(=O)n2C)n1Cc1ccccc1Br
Result: 25.1 µM (inconclusive)

Problem: // query: O=[N+]([O-])c1cc(Cc2cc([N+](=O)[O-])c3cccnc3c2O)c(O)c2ncccc12
Result: 3.98 µM (inconclusive)

Problem: And COC(=O)[C@@]1(Cc2ccc(OC)cc2)[C@H]2c3cc(C(=O)N(C)C)n(CCc4ccc(OC)c(Br)c4)c3C[C@H]2CN1C(=O)c1ccccc1 ?
Result: 0.0501 µM (inconclusive)

Problem: Now consider CCNc1ncc2nc(-c3cn(C)c4ccccc34)c(=O)n(-c3ccccc3)c2n1 and answer again.
Result: 25.1 µM (inconclusive)

----------
So I've got AC50 readings for Cytochrome P450 1A2 (Homo sapiens), take a look.

Problem: // AC50 lookup, key: Cn1c(C(=O)O)c(CC(=O)NCc2cccnc2)c2ccccc21
Result: 10 µM (inconclusive)

Problem: Do the same for CC(=O)OCCNC(=O)c1cccnc1 please
Result: 31.6 µM (inconclusive)

Problem: Another compound to check: Cc1ccc(C(=O)C2C(=O)c3ccccc3C2=O)cc1
Result: 25.1 µM (inconclusive)

Problem: Subsequent entry: Clc1ccccc1-c1ccc2ncnc(NC3CCNCC3)c2c1
Result: 15.8 µM (inconclusive)

Problem: Would you mind doing c1ccc(-c2csc3ncn4cnnc4c23)cc1 as well?
Result: 0.251 µM (inconclusive)

Problem: Same question, COc1cccc(Cn2c(=O)c(-c3ccccc3)nc3cnc(N4CCNCC4)nc32)c1 this time
Result: 3.16 µM (inconclusive)

Problem: Same question for O=C(NNc1nc2ccccc2s1)c1ccccc1F please.
Result: 14.1 µM (inconclusive)
